Cited source for all entries: paper PMC13043311

Test target: T1, TLR7 WT (mmTLR7) (Macaca mulatta, UniProt B3Y653 27-839)
T1 sequence: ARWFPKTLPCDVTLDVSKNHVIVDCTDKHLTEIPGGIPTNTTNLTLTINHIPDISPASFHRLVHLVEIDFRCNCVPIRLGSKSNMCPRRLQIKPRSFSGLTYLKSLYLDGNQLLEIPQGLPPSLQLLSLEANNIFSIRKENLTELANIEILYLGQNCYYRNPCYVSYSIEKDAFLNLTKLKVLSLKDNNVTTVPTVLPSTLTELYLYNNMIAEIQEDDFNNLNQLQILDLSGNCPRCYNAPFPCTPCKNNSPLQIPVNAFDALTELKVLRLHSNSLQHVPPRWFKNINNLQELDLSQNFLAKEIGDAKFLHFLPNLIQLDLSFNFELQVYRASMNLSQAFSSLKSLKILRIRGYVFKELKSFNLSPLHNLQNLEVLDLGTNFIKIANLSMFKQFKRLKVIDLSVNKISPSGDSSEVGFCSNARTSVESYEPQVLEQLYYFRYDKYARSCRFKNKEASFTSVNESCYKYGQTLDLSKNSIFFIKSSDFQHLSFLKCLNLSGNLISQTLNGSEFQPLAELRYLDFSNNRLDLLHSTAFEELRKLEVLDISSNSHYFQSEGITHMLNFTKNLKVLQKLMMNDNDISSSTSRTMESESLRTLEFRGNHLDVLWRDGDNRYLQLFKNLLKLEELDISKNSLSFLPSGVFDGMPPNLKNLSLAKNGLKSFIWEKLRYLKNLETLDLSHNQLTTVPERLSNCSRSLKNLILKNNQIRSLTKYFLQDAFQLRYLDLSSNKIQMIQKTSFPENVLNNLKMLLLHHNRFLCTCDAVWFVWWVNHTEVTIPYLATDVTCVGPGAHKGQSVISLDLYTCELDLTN
Assay name: SPR; control of the nucleoside series; mean computed from runs 1±0.3, 3±0.9, 5±0.8; SPR with recombinant TLR7/TLR8; buffer, pH and temperature not in the material
Recorded conditions: protein: recombinant; chain copies: 2; single-stranded
Measured property: Kd (nM)

- Binder: "GUC (XNA, 2'-OMe G1, RNA U2 C3; phosphorothioate linkages) [mGrUrC PS]"
  Val: 3000
